# test: Unbound brain-to-plasma concentration ratio in cynomolgus monkey
# Assay type: ADME, Macaca fascicularis
# condition set: read-out: K(p,uu,brain)
property name: Kp uu
Answer field: number only, no words.

Value of measured Kp uu for the entry `COc1nnc2sc(C(=O)NC3CN(c4ncc(C(F)(F)F)cn4)C3)c(N)c2c1C` : 1.5

###

# test: Brain to plasma permeability coefficient, Kp in cynomolgus monkey
# Format: ADME, Macaca fascicularis
property name: Kp
Answer field: number only, no words.

Value of measured Kp for the entry `COc1nnc2sc(C(=O)NC3CN(c4ncc(C(F)(F)F)cn4)C3)c(N)c2c1C` : 1.7

###

Task for the reader: assign each of the following molecules its reported EC50.
# system tested: Muscarinic acetylcholine receptor M4 (Homo sapiens)
# Sequence (P08173 whole entry): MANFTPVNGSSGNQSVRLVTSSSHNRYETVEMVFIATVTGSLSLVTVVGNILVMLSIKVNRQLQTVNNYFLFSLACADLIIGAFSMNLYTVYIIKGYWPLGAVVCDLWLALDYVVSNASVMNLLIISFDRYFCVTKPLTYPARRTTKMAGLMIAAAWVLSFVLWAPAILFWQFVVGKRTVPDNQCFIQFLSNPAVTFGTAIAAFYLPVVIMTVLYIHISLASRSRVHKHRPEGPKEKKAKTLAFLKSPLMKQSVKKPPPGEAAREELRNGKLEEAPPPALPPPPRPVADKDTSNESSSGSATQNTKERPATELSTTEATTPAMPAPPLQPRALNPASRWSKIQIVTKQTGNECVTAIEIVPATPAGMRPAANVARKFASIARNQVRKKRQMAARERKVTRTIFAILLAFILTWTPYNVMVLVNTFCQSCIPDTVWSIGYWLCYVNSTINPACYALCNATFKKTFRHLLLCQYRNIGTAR
# test: Positive allosteric modulation of human M4 receptor/Gqi5 in presence of EC20 acetylcholine by calcium mobilization assay

Value of measured EC50 for the entry `Cc1c(Cl)nnc2sc(C(=O)NC3CN(c4ncncc4C#N)C3)c(N)c12` : 220 nM

Value of measured EC50 for the entry `Cc1c(O)nnc2sc(C(=O)NC3CN(c4ncc(C(F)(F)F)cn4)C3)c(N)c12` : 6720 nM

Value of measured EC50 for the entry `Cc1c(Cl)nnc2sc(C(=O)NC3CN(c4ccc(C5CC5)nn4)C3)c(N)c12` : 120 nM

Value of measured EC50 for the entry `Cc1c(O)nnc2sc(C(=O)NC3Cc4ccccc4C3)c(N)c12` : 290 nM

Value of measured EC50 for the entry `Cc1c(CN(C)C)nnc2sc(C(=O)NC3CN(c4ncc(C(F)(F)F)cn4)C3)c(N)c12` : > 30000 nM

Value of measured EC50 for the entry `Cc1c(Cl)nnc2sc(C(=O)NC3Cc4ccccc4C3)c(N)c12` : 10 nM

Value of measured EC50 for the entry `CCc1nnc2sc(C(=O)NC3CN(c4ncc(C(F)(F)F)cn4)C3)c(N)c2c1C` : 510 nM

Value of measured EC50 for the entry `Cc1c(Cl)nnc2sc(C(=O)NC3CN(c4cccnc4)C3)c(N)c12` : 20 nM

Value of measured EC50 for the entry `Cc1nnc2sc(C(=O)NC3Cc4ccccc4C3)c(N)c2c1C` : 20 nM

Value of measured EC50 for the entry `COc1nnc2sc(C(=O)NC3CN(c4ncc(C(F)(F)F)cn4)C3)c(N)c2c1C` : 90 nM

Value of measured EC50 for the entry `Cc1c(Cl)nnc2sc(C(=O)NC3CN(c4cnc(Cl)cn4)C3)c(N)c12` : 140 nM

Value of measured EC50 for the entry `Cc1c(CO)nnc2sc(C(=O)NC3CN(c4ncc(C(F)(F)F)cn4)C3)c(N)c12` : 1170 nM

Value of measured EC50 for the entry `Cc1nc(Cl)c(C)c(N2CC(NC(=O)c3sc4nnc(Cl)c(C)c4c3N)C2)n1` : 100 nM

Value of measured EC50 for the entry `Cc1nnc2sc(C(=O)NC3CN(c4ncc(C(F)(F)F)cn4)C3)c(N)c2c1C` : 90 nM

Value of measured EC50 for the entry `Cc1c(Cl)nnc2sc(C(=O)NC3CN(c4ncc(C(F)(F)F)cn4)C3)c(N)c12` : 60 nM

Value of measured EC50 for the entry `Cc1c(Cl)nnc2sc(C(=O)NC3CN(c4cc(Cl)ncc4Cl)C3)c(N)c12` : 30 nM

Value of measured EC50 for the entry `Cc1c(CF)nnc2sc(C(=O)NC3CN(c4ncc(C(F)(F)F)cn4)C3)c(N)c12` : 170 nM

Value of measured EC50 for the entry `COCCOc1nnc2sc(C(=O)NC3CN(c4ncc(C(F)(F)F)cn4)C3)c(N)c2c1C` : 180 nM

Value of measured EC50 for the entry `Cc1c(C(F)F)nnc2sc(C(=O)NC3CN(c4ncc(C(F)(F)F)cn4)C3)c(N)c12` : 150 nM

Value of measured EC50 for the entry `COc1nnc2sc(C(=O)NC3Cc4ccccc4C3)c(N)c2c1C` : 20 nM

Data provenance: ChEMBL document CHEMBL4665653
